Data origin, for the record: PubChem BioAssay (NCI)

TGI: recorded values
Tested on: K-562 leukemia
Test: NCI tumour cell line growth inhibition, 48 h

Molecule: c1cnn2ncc(-c3ccnc(Nc4ccc5c(c4)OCCO5)n3)c2c1
System: K-562 leukemia
TGI: > 25 µM

Molecule: Cc1cc(NS(=O)(=O)c2ccc(NC(NC(=O)C(C(F)(F)F)C(F)(F)F)(C(F)(F)F)C(F)(F)F)cc2)no1
System: K-562 leukemia
TGI: > 100 µM

Molecule: COc1cc2nc(-c3ccc(C(F)(F)F)cc3)cc(OCCCN3CCCC3)c2cc1OC
System: K-562 leukemia
TGI: 4.54 µM

Molecule: CCN(CCCl)c1cc(CN(C)C)cc(NC(=O)c2ccc(C(=O)Nc3cccc(CN(C)C)c3)cc2)c1
System: K-562 leukemia
TGI: 1.42 µM

Molecule: [2H]c1nc(=Nc2cc(NC(=O)C=C)c(N(C)CCN(C)C)cc2OC)[nH]c(-c2cn(C([2H])([2H])[2H])c3ccccc23)c1[2H]
System: K-562 leukemia
TGI: 3.78 µM

Molecule: COC1C(O)C(O[C@H]2CC[C@@]3(C)C(CC[C@@H]4[C@@H]3CC[C@]3(C)[C@@H](C(C)OC5OC(CO)C(O)C(O)C5O)CC[C@]43O)C2)OC(C)C1OC1OC(CO)C(O)C(O)C1O (some centres undefined)
System: K-562 leukemia
TGI: > 100 µM

Molecule: O=C1CNS(=O)(=O)N1
System: K-562 leukemia
TGI: > 100 µM

Molecule: CCOC(=O)NC(Nc1c(F)c(F)c(F)c(F)c1F)(C(F)(F)F)C(F)(F)F
System: K-562 leukemia
TGI: > 100 µM

Molecule: CN(C)CCCNC(=O)c1c(O)c2ccccc2n(C)c1=O
System: K-562 leukemia
TGI: > 100 µM

Molecule: O=C1c2cccc(O)c2C(=O)c2c(OC3OC(CO)C(O)C(O)C3O)cccc21 (centres undefined)
System: K-562 leukemia
TGI: > 100 µM

Molecule: CSc1ccc(N(C)c2nc(C)nc3c2CCC3)cc1
System: K-562 leukemia
TGI: > 100 µM

Molecule: CC(C)C1=C(O)C2=C(C(=O)C1=O)C1(C)CCCC(C)(C)C1C(O)C2OC=O (centres undefined)
System: K-562 leukemia
TGI: > 100 µM

Molecule: Cc1cccc(N=Nc2ccc(N=Nc3c(O)ccc4ccccc34)cc2C)c1
System: K-562 leukemia
TGI: > 100 µM

Molecule: Cc1cc2c(cc1Cl)S/C(=C/C(=O)O)C(Nc1cccc3nsnc13)=NS2(=O)=O
System: K-562 leukemia
TGI: > 100 µM

Molecule: COc1ccc([C@H]2C=[N+]([O-])O[C@H](OC3CCCC3)[C@@H]2OC(C)=O)cc1OC
System: K-562 leukemia
TGI: > 100 µM

Molecule: O=S1(=O)c2cnccc2NC(=NCc2ccccc2)N1c1ccccc1
System: K-562 leukemia
TGI: > 100 µM

Molecule: COc1ccc(C2=C(N3CCc4ccccc43)C(=O)NC2=O)cc1
System: K-562 leukemia
TGI: > 25 µM

Molecule: CC1(C)OC2COC3([C@@H]4OC(C)(C)O[C@@H]4CO)OC(C)(C)OC3C2O1 (some centres undefined)
System: K-562 leukemia
TGI: > 100 µM

Molecule: Cc1cccc(N(CC(=O)O)S(=O)(=O)c2ccccc2)c1
System: K-562 leukemia
TGI: > 100 µM

Molecule: Cc1cc(C)n(C2=NS(=O)(=O)c3ccccc3N2C)n1
System: K-562 leukemia
TGI: > 100 µM

Molecule: C(=C\c1ccccc1)/COc1ccccc1C(N1CCOCC1)n1nc2ccccc2n1 (centres undefined)
System: K-562 leukemia
TGI: 4.26 µM

Molecule: COc1cccc2c1OCC1Cc3ccccc3OC21 (centres undefined)
System: K-562 leukemia
TGI: > 100 µM

Molecule: C/C(=C\CO)CC/C=C(\C)CNc1ccc([N+](=O)[O-])cc1
System: K-562 leukemia
TGI: 66.5 µM

Molecule: CN1N=C(c2ccncc2)OC1c1ccccc1F (centres undefined)
System: K-562 leukemia
TGI: > 100 µM
